B1: library; a variant is named by its letters at N, in order (parent)
chain: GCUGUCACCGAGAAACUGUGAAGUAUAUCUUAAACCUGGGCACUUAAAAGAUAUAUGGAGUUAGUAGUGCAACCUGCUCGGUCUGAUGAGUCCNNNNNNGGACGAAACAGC

Variants of: B1
Assay procedure: normalized RNA/DNA level without ligand (relative to sTRSVctl = 100) (log10 (% of sTRSVctl)); HEK293T; ligand: cyclic di-GMP (c-di-GMP-II aptamer); higher = less ribozyme self-cleavage, higher mRNA level
Applied conditions: reporter: mCherry (pCS4076), ligand present: no
Observable: normalized RNA/DNA level without ligand (log10)
Just the number, please.

State the recorded normalized RNA/DNA level without ligand (log10) for this entry: AACGCU
1.7

State the recorded normalized RNA/DNA level without ligand (log10) for this entry: CUGAGG
1.73

State the recorded normalized RNA/DNA level without ligand (log10) for this entry: CGAUUG
1.7

State the recorded normalized RNA/DNA level without ligand (log10) for this entry: AGCAUA
1.52

State the recorded normalized RNA/DNA level without ligand (log10) for this entry: UAUUAA
1.7
